Would you mind telling me the reported GI50 of each entry?
system: M14; experiment: NCI tumour cell line growth inhibition, 48 h
The source made the active and inactive calls. No stated cut-off is given here; in the data, active = GI50 up to about 1.1 µM and inactive = higher.

Record GI50 for all entries; do not skip any.
1. c1ccc([P+](Cc2ccccc2C[P+](c2ccccc2)(c2ccccc2)c2ccccc2)(c2ccccc2)c2ccccc2)cc1
2. C=CCCC1(CC(Sc2ccccc2)P(=O)(c2ccccc2)c2ccccc2)OCCO1 (stereo not drawn)
3. O=c1cc(N2CCNCC2)nc2ccccn12

> 100 µM (inactive)
> 10 µM (inactive)
> 100 µM (inactive)

---

tested on: OVCAR-4; assay: NCI tumour cell line growth inhibition, 48 h
Active and inactive are the calls of the source. No stated cut-off is given here; in the data, active = GI50 up to about 1.1 µM and inactive = higher.
Your answer must be one of the following: active, inactive

COMPOUND | ASSAYED TARGET | ASSIGNED CATEGORY
O=C(Nc1ccccc1)N(CCN(Cc1ccccc1)C(=O)Nc1ccccc1)CCN(Nc1ccccc1)C(=O)Nc1ccccc1 | OVCAR-4 | inactive
CC1=NN(c2nc(N)nc(/C(C#N)=C\c3csc([N+](=O)[O-])c3)n2)C(C)(C)C1 | OVCAR-4 | inactive

Per the records of this test, what outcome belongs to C/C=C/C(O)P(=O)(OC)OC (stereo not drawn) ?
active

Where do these numbers come from? They come from ChEMBL document CHEMBL1201862.
